Target: PI3Kα (Homo sapiens)
Sequence (P42336 whole entry): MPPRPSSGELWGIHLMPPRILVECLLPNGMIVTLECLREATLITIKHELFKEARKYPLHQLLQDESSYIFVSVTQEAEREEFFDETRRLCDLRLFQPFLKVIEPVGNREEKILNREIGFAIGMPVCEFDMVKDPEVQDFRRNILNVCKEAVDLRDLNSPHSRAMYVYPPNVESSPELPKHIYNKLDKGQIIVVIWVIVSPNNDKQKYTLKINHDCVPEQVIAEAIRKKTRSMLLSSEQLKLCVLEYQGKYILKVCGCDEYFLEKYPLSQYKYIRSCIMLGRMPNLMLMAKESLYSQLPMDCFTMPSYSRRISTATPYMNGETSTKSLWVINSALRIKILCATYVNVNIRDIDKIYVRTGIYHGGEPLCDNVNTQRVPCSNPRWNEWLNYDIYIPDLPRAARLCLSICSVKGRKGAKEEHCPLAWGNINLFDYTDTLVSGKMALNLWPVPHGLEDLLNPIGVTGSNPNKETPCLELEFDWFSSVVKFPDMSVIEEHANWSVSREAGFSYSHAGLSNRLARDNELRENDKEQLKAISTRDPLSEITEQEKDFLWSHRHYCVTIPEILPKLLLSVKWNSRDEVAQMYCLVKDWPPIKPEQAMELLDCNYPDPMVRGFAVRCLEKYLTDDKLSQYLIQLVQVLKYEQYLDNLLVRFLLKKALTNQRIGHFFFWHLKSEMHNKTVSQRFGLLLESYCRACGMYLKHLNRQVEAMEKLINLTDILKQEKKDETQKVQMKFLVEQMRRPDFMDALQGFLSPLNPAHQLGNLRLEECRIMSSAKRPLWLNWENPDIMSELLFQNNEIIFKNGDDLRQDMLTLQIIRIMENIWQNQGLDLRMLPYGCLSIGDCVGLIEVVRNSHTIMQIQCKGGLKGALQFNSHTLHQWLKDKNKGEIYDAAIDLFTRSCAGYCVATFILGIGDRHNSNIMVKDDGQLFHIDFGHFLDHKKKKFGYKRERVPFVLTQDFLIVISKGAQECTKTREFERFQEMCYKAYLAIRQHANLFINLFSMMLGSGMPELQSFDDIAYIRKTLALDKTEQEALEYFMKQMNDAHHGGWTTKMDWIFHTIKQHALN
Sequence (P27986 whole entry partner): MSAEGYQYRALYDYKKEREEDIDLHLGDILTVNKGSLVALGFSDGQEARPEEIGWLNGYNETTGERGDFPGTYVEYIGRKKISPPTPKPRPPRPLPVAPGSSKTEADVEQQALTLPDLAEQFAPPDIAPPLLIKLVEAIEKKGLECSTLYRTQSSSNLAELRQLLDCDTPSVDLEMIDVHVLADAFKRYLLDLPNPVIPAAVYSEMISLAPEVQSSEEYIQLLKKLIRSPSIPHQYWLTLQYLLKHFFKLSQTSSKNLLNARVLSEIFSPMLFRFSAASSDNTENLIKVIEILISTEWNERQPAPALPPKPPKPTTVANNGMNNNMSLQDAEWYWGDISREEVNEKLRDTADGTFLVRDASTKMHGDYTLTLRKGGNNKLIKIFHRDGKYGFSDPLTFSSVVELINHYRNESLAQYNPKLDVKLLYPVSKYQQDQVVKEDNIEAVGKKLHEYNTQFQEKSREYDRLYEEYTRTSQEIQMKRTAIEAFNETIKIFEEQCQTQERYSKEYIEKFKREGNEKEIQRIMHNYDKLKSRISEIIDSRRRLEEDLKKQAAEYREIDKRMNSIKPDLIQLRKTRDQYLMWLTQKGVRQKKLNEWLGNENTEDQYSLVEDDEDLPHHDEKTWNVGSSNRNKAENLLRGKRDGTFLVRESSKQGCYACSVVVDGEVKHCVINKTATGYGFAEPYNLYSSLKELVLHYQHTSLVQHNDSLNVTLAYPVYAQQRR
Experiment: Enzymatic inhibition assay (ADP-Glo Plus luminescence kinase assay), PI3Kα
Type: biochemical
Details: 100 nM compound
Procedure: The 50 µL reaction mixture contains 40 mM Tris-HCl, pH 7.4, 10 µM ATP, 10 mM MgCl2, 0.1 mg/mL BSA, 1 mM DTT, 0.2 ug/mL ERK 2, ERK 1, PI3Kα, PI3Kβ, PI3Kγ or PI3Kδ and 100 uM lipid substrate. […] After all of the reaction mixtures were conducted at 30 °C for 40 min, the assay was performed using ADP-Glo Plus luminescence kinase assay kit. […] The experimental results were converted into active percentages, a dose-response curve is drawn, and the IC50 value of inhibition was calculated using […] […]
result type: inhibition at 0.1 µM (%)
Field format: number, assumed %, no unit text.

These recorded examples may help you get a feel for the data.
[
  {
    "compound": "Cn1cc(-c2cnc3cnc(NC(=O)NCCN4CCOCC4)nc3c2)cn1 [32j]",
    "value unit": "%",
    "observed result": 15.1
  },
  {
    "compound": "O=C(Nc1ncc2ncc(-c3cnn(CCN4CCOCC4)c3)cc2n1)NC1CCCC1 [32l]",
    "value unit": "%",
    "observed result": 63.8
  },
  {
    "compound": "O=C(Nc1ncc2ncc(-c3cccc(OC(F)(F)F)c3)cc2n1)NC1CCCC1 [32c]",
    "value unit": "%",
    "observed result": -11.3
  },
  {
    "compound": "CN(C)CCn1cc(-c2cnc3cnc(NC(=O)NC4CCCC4)nc3c2)cn1 [32m]",
    "value unit": "%",
    "observed result": 41
  },
  {
    "compound": "Cn1cc(-c2cnc3cnc(NC(=O)Nc4ccccc4)nc3c2)cn1 [32h]",
    "value unit": "%",
    "observed result": 24.9
  },
  {
    "compound": "Cn1cc(-c2cnc3cnc(NC(=O)NCc4ccccc4)nc3c2)cn1 [32g]",
    "value unit": "%",
    "observed result": 32.4
  }
]

Reported inhibition at 0.1 µM ( O=C(Nc1ncc2ncc(-c3ccnc(F)c3)cc2n1)NC1CCCC1 [32e] ) = 7
